B1: Osa-1-4 twister ribozyme (parent)
chain: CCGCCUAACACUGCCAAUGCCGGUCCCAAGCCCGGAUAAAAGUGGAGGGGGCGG

# Variants of: B1
# PROTOCOL SUMMARY: self-cleavage, relative activity (ratio to wild type); higher = more cleavage; co-transcriptional
MEASURE NAME: self-cleavage
Provide a numeric answer; units are not to be included.

Sample A28C C11U — what was its self-cleavage?
0.91

Sample A10G C11A — what was its self-cleavage?
0.38

Sample C33U G23U — what was its self-cleavage?
0.04

Sample A46C G49A — what was its self-cleavage?
0.04

Sample G35C G44U — what was its self-cleavage?
0.26

Sample G13U G48C — what was its self-cleavage?
0.01

Sample C27A G45C — what was its self-cleavage?
0.03

Sample G47U U12G — what was its self-cleavage?
0.05

Sample C11A C21U — what was its self-cleavage?
0.71

Sample C15U C33G — what was its self-cleavage?
0.03

Sample C14G G51U — what was its self-cleavage?
0.04

Sample G50C U24C — what was its self-cleavage?
0.11

Sample A7G C27G — what was its self-cleavage?
0.07

Sample C26U G51C — what was its self-cleavage?
0.07

Sample A16G C9A — what was its self-cleavage?
0.59

Sample C26U U18A — what was its self-cleavage?
0.88

Sample A7C A8U — what was its self-cleavage?
0.06

Sample G30U G54U — what was its self-cleavage?
0.05

Sample G51C U18G — what was its self-cleavage?
0.13

Sample A16U G42U — what was its self-cleavage?
0.73

Sample G35C G50C — what was its self-cleavage?
0.1

Sample C20U G54U — what was its self-cleavage?
0.85
